subject-of-test: CD28 (Homo sapiens, UniProt P10747)
assay-method-text: Flow binding to Jurkat/IL2 reporter cells (CD28)
Set-up: host or cells: Jurkat cells expressing an IL-2-luciferase reporter
reported-conditions: Table E11; Jurkats (CD28); 33.3 nM

molecule | CD28 MFI at 33.3 nM
E35D/M47V/N48KN68M/L85M (protein) VIHVTKEVKEVATLSCGHNVSVEELAQTRIYWQKDKKMVLTMMSGDVKIWPEYKNRTIFDITNNLSIMILALRPSDEGTYECVVMKYEKDAFKREHLAEVTLSVKAD | 245
H18Y/V22D/E35D/M47V/N48K/V68M (protein, UniProt P33681 35-288, looked up, variant H18Y V22D E35D M47V N48K V68M) T-lymphocyte activation …: VIHVTKEVKEVATLSCGYNVSDEELAQTRIYWQKDKKMVLTMMSGDVKIWPEYKNRTIFDITNNLSIMILALRPSDEGTYECVVLKYEKDAFKREHLAEVTLSVKADFPTPSISDFEIPTSNIRRIICSTSGGFPEPHLSWLENGEELNAINTTVSQDPETELYAVSSKLDFNMTTNHSFMCLIKYGHLRVNQTFNWNTTKQEHFPDNLLPSWAITLISVNGIFVICCLTYCFAPRCRERRRNERLRRESVRPV | 257
V22D/E24D/E35D/M47V/V68M (protein, CD80 v385 ECD) VIHVTKEVKEVATLSCGHNVSDEDLAQTRIYWQKDKKMVLTMMSGDVNIWPEYKNRTIFDITNNLSIMILALRPSDEGTYECVVLKYEKDAFKREHLAEVTLSVKADFPTPSISDFETPTSNIRRIICSTSGGFPEPHLSWLENGEELNAINTTVSQDPETELYAVSSKLDFNMTTNHSFMCLIKYGHLRVNQTFNWNTTKQEHFPDN | 191
E35D/M43I/M47L/V68M (protein, UniProt P33681 35-288, looked up, variant E35D M43I M47L V68M) T-lymphocyte activation …: VIHVTKEVKEVATLSCGHNVSVEELAQTRIYWQKDKKMVLTMISGDLNIWPEYKNRTIFDITNNLSIMILALRPSDEGTYECVVLKYEKDAFKREHLAEVTLSVKADFPTPSISDFEIPTSNIRRIICSTSGGFPEPHLSWLENGEELNAINTTVSQDPETELYAVSSKLDFNMTTNHSFMCLIKYGHLRVNQTFNWNTTKQEHFPDNLLPSWAITLISVNGIFVICCLTYCFAPRCRERRRNERLRRESVRPV | 1517
